Below is a list of entries, each paired with its recorded Activity value.
Test system: Rattus norvegicus
Assay overview: Testosterone-suppressive activity in Crl:CD(SD) rat assessed as number of animal with plasma testosterone level below the limit of detection at 2 nmol/hr, sc through osmotic pumps measured after 6 days by RIA
Type: functional
Where a SMILES comes first, the peptide text is derived from it. [ ]: non-standard residue; d: D form. Arg(Me) = CNC(=N)NCCC[C@H](N)C(=O)O; d4Pal = N[C@H](Cc1ccncc1)C(=O)O; azaGly = NNC(=O)O
The figure you give is taken to be in %; do not add the unit.

Compound | Target system | Activity [%]
CNC(=N)NCCC[C@H](NC(=O)[C@H](CC(C)C)NC(=O)NNC(=O)[C@H](Cc1ccccc1)NC(=O)[C@H](CO)NC(=O)[C@H](CC(N)=O)NC(=O)[C@@H](Cc1ccncc1)NC(=O)[C@H](N)Cc1ccc(O)cc1)C(=O)N[C@@H](Cc1c[nH]c2ccccc12)C(N)=O | Rattus norvegicus | 80
CNC(=N)NCCC[C@H](NC(=O)[C@H](CC(C)C)NC(=O)NNC(=O)[C@H](Cc1ccccc1)NC(=O)[C@H](CO)NC(=O)[C@H](C)NC(=O)[C@@H](Cc1ccncc1)NC(=O)[C@H](N)Cc1ccc(O)cc1)C(=O)N[C@@H](Cc1c[nH]c2ccccc12)C(N)=O | Rattus norvegicus | 0
CNC(=N)NCCC[C@H](NC(=O)[C@H](CC(C)C)NC(=O)NNC(=O)[C@H](Cc1ccccc1)NC(=O)[C@@H](NC(=O)[C@H](CC(N)=O)NC(=O)[C@@H](Cc1c[nH]c2ccccc12)NC(=O)[C@H](N)Cc1ccc(O)cc1)[C@@H](C)O)C(=O)N[C@@H](Cc1c[nH]c2ccccc12)C(N)=O | Rattus norvegicus | 100
CC[C@H](NC(=O)[C@@H](Cc1c[nH]c2ccccc12)NC(=O)[C@H](N)Cc1ccc(O)cc1)C(=O)N[C@@H](CO)C(=O)N[C@@H](Cc1ccccc1)C(=O)NNC(=O)N[C@@H](CC(C)C)C(=O)N[C@@H](CCCNC(=N)NC)C(=O)N[C@@H](Cc1c[nH]c2ccccc12)C(N)=O | Rattus norvegicus | 0

Bench note: what Activity did CNC(=N)NCCC[C@H](NC(=O)[C@H](CC(C)C)NC(=O)NNC(=O)[C@H](Cc1ccccc1)NC(=O)[C@H](CO)NC(=O)[C@H](CC(N)=O)NC(=O)[C@@H](Cc1ccncc1)NC(=O)[C@H](N)Cc1ccc(O)cc1)C(=O)N[C@@H](Cc1ccccc1)C(N)=O [KISS1-305] (H-[dY][d4Pal]NSF[azaGly]L[Arg(Me)]F-NH2) show?
100
